Solubility values by entry
experiment: Measurement of solubility; assay type: physicochemical; details: methyl benzoate (solvent), room temperature, ultrasonic waves
Form entry: value (weight %) — number only.

Example cases with answers are listed next.
- compound: "c1ccc(-c2cccc(-c3cccc(-c4cccc5c4-c4ccccc4C54c5ccccc5-c5c(-c6cccc(-c7cccc(-c8ccccc8)c7)c6)cccc54)c3)c2)cc1 [Compound 1]"
  recorded-endpoint: "Solubility"
  units-text: "weight %"
  measured-value: 7
- compound: "c1ccc(-c2cccc(-c3cccc(-c4ccc5c(c4)C4(c6ccccc6-5)c5ccccc5-c5ccc(-c6cccc(-c7cccc(-c8ccccc8)c7)c6)cc54)c3)c2)cc1 [Compound C1]"
  recorded-endpoint: "Solubility"
  units-text: "weight %"
  measured-value: 2

[Q] Please look up its Solubility: c1ccc(-c2cc(-c3ccccc3)cc(-c3cccc(-c4cccc5c4-c4ccccc4C54c5ccccc5-c5c(-c6cccc(-c7cc(-c8ccccc8)cc(-c8ccccc8)c7)c6)cccc54)c3)c2)cc1 [Compound 3]
[A] 9
